# System: DU-145 prostate
# RUN DESCRIPTION: NCI-60 one-dose screen, 48 h (100 = growth as untreated, 0 = no growth, -100 = all killed)
# CONDITION INFO: 10 µM unless noted
# Description: Cells are grown in 96 well plates and exposed to the test compound for 48 hours. Compounds are tested at a single concentration, which is 10^-5 M for most compounds. The reported endpoint is percent growth (GI% or GIPRCNT), where numbers from 0 - 100% represent growth inhibition, and numbers from -100% - 0 represent cell death. For example, a value of 40 represents 60% growth inhibition. A value of 0 means no net growth occurred over the course of the experiment. […]
Compounds without any hit were thinned out: in the full panel of roughly 83,000, 20% have a hit.
Entries are sorted into classes by growth as follows: interval 1 (below 50%), interval 2 (50% to below 80%), interval 3 (80% or more)

Q: Category of "CC(=O)NNc1ccc2nnc(-c3ccccc3)n2n1" , please.
Result: interval 3

Q: Also check "CSc1ccccc1NC(=O)c1ccc2nnn(/C(C#N)=C/c3ccccn3)c2c1"
Result: interval 1

Q: Again, but for "CC(C)Sc1nc(NCCc2c[nH]c3ccccc23)c(C#N)c(-c2ccc(F)cc2)n1"
Result: interval 1

Q: Ok, now "O=C(NNc1nc2cc(F)ccc2n2c(C(=O)N3CCN(C4CC4)CC3)ccc12)c1ncccn1"
Result: interval 1

Q: And C=C1CCC2C3(C)COC(c4ccc(F)cc4)OC3CCC2(C)C1CC(O)C1=CCOC1=O (stereo not given) ?
Result: interval 2

Q: "COc1ccc(NC(=O)Cn2c3c(sc2=O)[C@H]2[C@@H](O)[C@@H](O)[C@H](O)[C@@H]2CS3)cc1" ?
Result: interval 3

Q: Same lookup for "Cn1cc(-c2cc(N)n3nc(-c4cn(C)c5ncccc45)cc3n2)c2cccnc21" , please.
Result: interval 3

Values from PubChem BioAssay (NCI)
